For each of the compounds below, state its IC50.
biological target: human Cereblon WT GST-tagged protein (Homo sapiens, UniProt Q96SW2); construct: purchased CISBIO 64BDCRBNPEH; assay: CRBN binding, HTRF CEREBLON BINDING kit; conditions: CRBN binding, HTRF CEREBLON BINDING kit
Sequence (Q96SW2 whole entry): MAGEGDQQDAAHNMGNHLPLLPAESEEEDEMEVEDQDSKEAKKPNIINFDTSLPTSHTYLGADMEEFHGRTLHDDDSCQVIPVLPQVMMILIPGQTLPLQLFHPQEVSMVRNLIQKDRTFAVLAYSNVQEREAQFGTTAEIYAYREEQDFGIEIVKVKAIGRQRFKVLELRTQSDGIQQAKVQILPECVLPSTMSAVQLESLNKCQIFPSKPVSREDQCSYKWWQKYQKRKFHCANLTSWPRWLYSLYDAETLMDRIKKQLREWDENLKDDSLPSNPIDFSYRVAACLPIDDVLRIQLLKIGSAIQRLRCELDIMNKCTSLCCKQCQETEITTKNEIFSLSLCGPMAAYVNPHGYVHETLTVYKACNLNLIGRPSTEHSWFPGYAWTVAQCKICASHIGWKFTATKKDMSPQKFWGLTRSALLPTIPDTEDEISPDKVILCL

Task: Give the reported IC50 for this compound. CN(C)C(=O)c1cc2cnc(Nc3ccc(N4CCC(N(C)Cc5cccc(N6CCC(=O)NC6=O)c5)CC4)cn3)nc2n1C1CCCC1
Result: 1000 to 1900 nM

Task: Please indicate IC50 recorded for Cc1cc(-c2nc(C(=O)Nc3cc4oc(N5CCN(Cc6cccc(N7CCC(=O)NC7=O)c6)CC5)nc4nc3N3CC[C@@H](O)C3)co2)ccn1
Result: 500 to 1000 nM

Task: Annotate the compound COc1cc(N2CCC(N(C)Cc3ccc(C4CCC(=O)NC4=O)cn3)CC2)ccc1Nc1ncc(Cl)c(Nc2ccccc2P(C)(C)=O)n1 (stereo not drawn) with its measured IC50.
Result: 1000 to 1900 nM

Task: Read the entry O=C1CCC(Nc2cccc(CN3C[C@@H]4C[C@H]3CN4c3ccc(-c4cc(F)c5c(c4)C(=O)N(C(C(=O)Nc4nccs4)c4ncn6c4CCC6)C5)cc3)c2)C(=O)N1 (stereo partly drawn) and write its reported IC50.
Result: 500 to 1000 nM

Task: Specify reported IC50 for the compound shown: O=C1CCC(c2ccc(CN3C[C@H]4C[C@@H]3CN4c3ccc(-c4cc(F)c5c(c4)C(=O)N(C(C(=O)Nc4nccs4)c4ncn6c4CCC6)C5)cc3)cc2)C(=O)N1 (stereo partly drawn)
Result: 500 to 1000 nM

Task: Please give the documented IC50 of O=C1CCN(c2ccc(CN3CCN(c4ccc(Nc5ncc6nc(Nc7ccccc7)n(C7CCCC7)c6n5)cc4)CC3)nc2)C(=O)N1
Result: 500 to 1000 nM

Task: Given the compound O=C1CCN(c2ccc(CN3CCC(n4cc(NC(=O)c5cnn6ccc(N7C[C@H]8C[C@@H]7CO8)nc56)c(C(F)F)n4)CC3)cc2)C(=O)N1 , write its reported IC50.
Result: 500 to 1000 nM

Task: Find the measured IC50 of COc1cc(N2CCC(N3CCN(Cc4ccc(C5CCC(=O)NC5=O)cc4)CC3)CC2)c(C)cc1Nc1ncc(Br)c(Nc2ccc3nccnc3c2P(C)(C)=O)n1 (stereo not drawn) and report it.
Result: 1000 to 1900 nM

Task: Consider the compound Cc1cc(-c2nc(C(=O)Nc3cc4oc(N5CCN(Cc6ccc(N7CCC(=O)NC7=O)cc6)CC5)nc4nc3N3CC[C@@H](O)C3)co2)ccn1 . State its measured IC50.
Result: 500 to 1000 nM

Task: Identify the reported IC50 for the following entry. CN(Cc1cccc(N2CCC(=O)NC2=O)c1)C1CCN(c2ccc(-c3cc(F)c4c(c3)C(=O)N(C(C(=O)Nc3nccs3)c3ncn5c3CCC5)C4)cc2)CC1 (stereo not drawn)
Result: < 500 nM

Task: Retrieve IC50 measured for COc1cc(N2CCN(Cc3cc(C4CCC(=O)NC4=O)cnc3F)CC2)ccc1Nc1ncc(Cl)c(Nc2ccccc2P(C)(C)=O)n1 (stereo not drawn) and print it.
Result: < 500 nM

Task: Name the recorded IC50 of the item CCc1cc2c(cc1N1CCC(N3CCN(Cc4cccc(NC5CCC(=O)NC5=O)c4)CC3)CC1)C(C)(C)c1[nH]c3cc(C#N)ccc3c1C2=O (stereo not drawn) in your answer.
Result: 1000 to 1900 nM

Task: Indicate the recorded IC50 value for this compound: O=C1CCC(c2cnc(F)c(CN3CCN(c4ccc(-c5cc(F)c6c(c5)C(=O)N(C(C(=O)Nc5nccs5)c5ncn7c5CCC7)C6)cc4)CC3)c2)C(=O)N1 (stereo not drawn)
Result: < 500 nM

Task: Give me measured IC50, please, for this compound: CN1CCN([C@@H]2CCCN(c3cnc(C(N)=O)c(Nc4ccc(C5CCN(Cc6ccc(N7CCC(=O)NC7=O)cc6)CC5)cc4)n3)C2)C1=O
Result: 500 to 1000 nM

Task: Give IC50 for the following compound: C#Cc1cccc(Nc2ncnc3cc(OCCOC)c(OCCOC)cc23)c1 [erlotinib, reference compound]
Result: > 10000 nM

Task: Name the recorded IC50 of the item COC1CCN(c2nccc(Nc3cc4c(cn3)c(N3CCN(Cc5ccc(C6CCC(=O)NC6=O)cc5)CC3)nn4C(C)C)n2)CC1 (stereo not drawn) in your answer.
Result: 1000 to 1900 nM

Task: Please supply the value of reported IC50 for the item O=C1CCC(Nc2cccc(CN3CCN(c4ccc5c(c4)nc(NC(=O)c4cccc(C(F)(F)F)c4)n5[C@H]4CC[C@@H](CO)CC4)CC3)c2)C(=O)N1 (stereo partly drawn)
Result: 500 to 1000 nM

Task: Determine from records and report IC50 for CN(Cc1cccc(NC2CCC(=O)NC2=O)c1)C1CCN(c2ccc(-c3cc(F)c4c(c3)C(=O)N(C(C(=O)Nc3nccs3)c3ncn5c3CCC5)C4)cc2)CC1 (stereo not drawn)
Result: < 500 nM

Task: Give me measured IC50, please, for this compound: CN(C)C(=O)c1cc2cnc(Nc3ccc(N4CCN(Cc5cccc(N6CCC(=O)NC6=O)c5)CC4)cn3)nc2n1C1CCCC1
Result: 500 to 1000 nM

Task: Quote IC50 reported for CCc1cc2c(cc1N1CCN(Cc3ccc(C4CCC(=O)NC4=O)cc3)CC1)C(C)(C)c1[nH]c3cc(C#N)ccc3c1C2=O (stereo not drawn) please.
Result: 500 to 1000 nM

Task: Fill in reported IC50 for this entry: O=C1CCC(Nc2cccc(CN3CCN(c4ccc(Nc5ncc6nc(Nc7ccccc7)n(C7CCCC7)c6n5)cc4)CC3)c2)C(=O)N1 (stereo not drawn)
Result: < 500 nM

Task: Return reported IC50. Input compound: CCc1cc2c(cc1N1CCC(N3CCN(Cc4cncc(N5CCC(=O)NC5=O)c4)CC3)CC1)C(C)(C)c1[nH]c3cc(C#N)ccc3c1C2=O
Result: < 500 nM

Task: Given CC(=O)c1c(C)c2cnc(Nc3ccc(N4CCN(Cc5cccc(N6CCC(=O)NC6=O)c5)CC4)cn3)nc2n(C2CCCC2)c1=O , respond with its IC50.
Result: 1000 to 1900 nM

Task: Tell me measured IC50 for COc1cc2nn(C3CCN(Cc4cccc(NC5CCC(=O)NC5=O)c4)CC3)cc2cc1NC(=O)c1cccc(C(F)(F)F)n1 (stereo not drawn) please.
Result: 500 to 1000 nM
